Test system: ASPC1
procedure.details: Cytotoxicity against human ASPC1 cells assessed as cell growth inhibition
Assay type: functional, cell-based
Entries annotated with measured IC50
Write it as a number; the unit nM goes unstated.

Past entries and their recorded results:
{"compound.structure.string": "C/C=C(/C)C(=O)OC[C@H]1C2=C(C[C@H]3[C@H]4C5=C(C[C@@H]([C@H](C#N)N13)N4C)C(=O)C(C)=C(OC)C5=O)C(=O)C(C)=C(OC)C2=O", "IC50 / nM": 20}
{"compound.structure.string": "C/C=C(/C)C(=O)OC[C@H]1c2c(c(O)c(C)c3c2OCO3)C[C@H]2[C@H]3C4=C(C[C@@H]([C@H](C#N)N12)N3C)C(=O)C(C)=C(OC)C4=O", "IC50 / nM": 98}

# evaluate next
Can you share its IC50? I mean this compound: `C/C=C(/C)C(=O)OC[C@H]1c2c(c(OC(C)=O)c(C)c3c2OCO3)C[C@H]2[C@H]3C4=C(C[C@@H]([C@H](C#N)N12)N3C)C(=O)C(C)=C(OC)C4=O`
120
